# experimental_target: Sodium- and chloride-dependent GABA transporter 1 (Mus musculus) (UniProt P31648)
# protocol_summary: Binding affinity to mouse GAT1 expressed in HEK293 cells membranes assessed as remaining [2H10]NO711 binding level at 10 uM using LC-ESI-MS/MS analysis by [2H10]NO711 binding inhibition assay
# Assay type: cell membranes
Activity by entry:

If you can, please state the reported Activity value of O=C(O)C1CCCN(CCN/N=C/c2ccccc2-c2ccccc2Cl)C1 (centres undefined) .
< 5%

# Activity lookup, item O=C(O)C1CCCN(CCN/N=C/c2ccccc2-c2ccc(-c3ccccc3)cc2)C1 (centres undefined)
> 10%

###

Recorded Activity, one value per entry.
# experimental_target: Sodium- and chloride-dependent GABA transporter 1 (Mus musculus)
# protocol_summary: Binding affinity to mouse GAT1 expressed in HEK293 cells membranes assessed as remaining [2H10]NO711 binding level at 10 uM using LC-ESI-MS/MS analysis by [2H10]NO711 binding inhibition assay
# Format: cell membranes
Give just the number in %; leave the unit off.

GET /values?readout=Activity&item= "COc1ccccc1-c1ccccc1C=O"
79

Look at this molecule and give its reported Activity. "O=Cc1ccccc1-c1cccc(Cl)c1"
79

Request the reported Activity associated with "Cc1ccc(-c2ccccc2C=O)c(C)c1"
81

Recorded Activity of "O=Cc1ccccc1-c1ccc(Cl)cc1" , please.
79

I'd like to know its Activity. The molecule in question is "O=Cc1ccccc1-c1cc(F)cc(F)c1"
81

I'd like to know its Activity. The molecule in question is "O=Cc1ccccc1-c1ccc(C(F)(F)F)cc1C(F)(F)F"
81

Requested field: Activity. Item: "O=Cc1ccccc1-c1ccc(-c2ccccc2)cc1"
81

// query Activity value for entry "O=Cc1ccccc1-c1cccc(F)c1F"
81

###

# experimental_target: Sodium- and chloride-dependent GABA transporter 1 (Mus musculus) (UniProt P31648)
# protocol_summary: Binding affinity to mouse GAT1 expressed in HEK293 cells membranes assessed as remaining [2H10]NO711 binding level at 10 uM using LC-ESI-MS/MS analysis by [2H10]NO711 binding inhibition assay
# Format: cell membranes
Listed here: items and their measured Activity.
The reply should contain only the number, in %.

Example entries and their recorded answers appear below.
compound=COc1ccc(F)cc1-c1ccccc1C=O assay_value=88
compound=O=Cc1cccc(-c2ccccc2)c1 assay_value=88
compound=O=Cc1cc(F)ccc1-c1ccccc1Cl assay_value=35
compound="O=C(O)C1CCCN(CCN/N=C/c2cc(F)ccc2-c2ccccc2)C1 (configuration not stated)" assay_value=13

# input for lookup
Form field: reported Activity of "O=Cc1ccccc1-c1ccc(Cl)cc1Cl"
85

###

The molecules listed here are annotated with their Activity.
# experimental_target: Sodium- and chloride-dependent GABA transporter 1 (Mus musculus) (UniProt P31648)
# protocol_summary: Binding affinity to mouse GAT1 expressed in HEK293 cells membranes assessed as remaining [2H10]NO711 binding level at 10 uM using LC-ESI-MS/MS analysis by [2H10]NO711 binding inhibition assay
# Type: cell membranes

molecule="O=C(O)C1CCCN(CCN/N=C/c2ccccc2-c2ccc(Cl)cc2F)C1 (stereo not given)" property_label=Activity assay_value="< 5%"

Item under review: O=C(O)C1CCCN(CCN/N=C/c2ccccc2-c2ccc(C(F)(F)F)cc2C(F)(F)F)C1 (stereo not given) . Reported Activity?
< 5%

Request the reported Activity associated with O=C(O)C1CCCN(CCN/N=C/c2ccccc2-c2ccccc2F)C1 (stereo not given)
< 5%

Name the recorded Activity for O=C(O)C1CCCN(CCN/N=C/c2ccccc2-c2cccc(-c3ccccc3)c2)C1 (stereo not given) .
> 10%

Report Activity for O=C(O)C1CCCN(CCN/N=C/c2ccccc2-c2c(F)cccc2F)C1 (stereo not given) please.
< 5%

Activity for O=C(O)C1CCCN(CCN/N=C/c2ccccc2-c2ccccc2-c2ccccc2)C1 (stereo not given) ?
> 10%

What Activity value was documented for this molecule, O=C(O)C1CCCN(CCN/N=C/c2ccccc2-c2c(F)cc(F)cc2F)C1 (stereo not given) ?
< 5%

Need Activity of COc1cc(F)ccc1-c1ccccc1/C=N/NCCN1CCCC(C(=O)O)C1 (stereo not given) , thanks.
< 5%

Record request: Activity value, item O=C(O)C1CCCN(CCN/N=C/c2cc(F)ccc2-c2ccccc2Cl)C1 (stereo not given)
< 5%

Endpoint output: Activity of O=C(O)C1CCCN(CCN/N=C/c2ccccc2-c2ccc(Cl)cc2Cl)C1 (stereo not given) . Value?
< 5%

###

# experimental_target: Sodium- and chloride-dependent GABA transporter 1 (Mus musculus)
# protocol_summary: Binding affinity to mouse GAT1 expressed in HEK293 cells membranes assessed as remaining [2H10]NO711 binding level at 10 uM using LC-ESI-MS/MS analysis by [2H10]NO711 binding inhibition assay
# Assay type: cell membranes
property_label: Activity

Consider the worked cases shown below.
compound="O=C(O)C1CCCN(CCN/N=C/c2ccccc2-c2ccc(F)cc2)C1 (configuration not stated)" assay_value="< 5%"
compound="O=C(O)C1CCCN(CCN/N=C/c2cccc(-c3ccccc3)c2)C1 (configuration not stated)" assay_value="> 10%"
compound="O=C(O)C1CCCN(CCN/N=C/c2ccccc2-c2ccc(F)cc2F)C1 (configuration not stated)" assay_value="< 5%"
compound="COc1ccc(F)cc1-c1ccccc1/C=N/NCCN1CCCC(C(=O)O)C1 (configuration not stated)" assay_value="> 10%"
compound="O=C(O)C1CCCN(CCN/N=C/c2ccccc2-c2ccccc2)C1 (configuration not stated)" assay_value="< 5%"
compound="O=C(O)C1CCCN(CCN/N=C/c2cc(F)ccc2-c2ccccc2F)C1 (configuration not stated)" assay_value="< 5%"

Fill in: Activity of O=C(O)C1CCCN(CCN/N=C/c2ccccc2-c2ccc(Cl)cc2)C1 (configuration not stated) is ___
< 5%

Suppose we examine the compound "Cc1ccccc1-c1ccccc1C=O" ; what Activity value has been reported?
81%

Data request, read-out Activity, for "Cc1cccc(-c2ccccc2C=O)c1"
91%

May I ask what Activity has been recorded for COc1ccccc1-c1ccccc1/C=N/NCCN1CCCC(C(=O)O)C1 (configuration not stated) ?
19%

Request the reported Activity associated with "O=C(O)C1=CCCN(CCON=C(c2ccccc2)c2ccccc2)C1"
< 5%

###

# experimental_target: Sodium- and chloride-dependent GABA transporter 1 (Mus musculus) (UniProt P31648)
# protocol_summary: Binding affinity to mouse GAT1 expressed in HEK293 cells membranes assessed as remaining [2H10]NO711 binding level at 10 uM using LC-ESI-MS/MS analysis by [2H10]NO711 binding inhibition assay
# Format: cell membranes
property_label: Activity

Sample answers from the record:
compound="COc1cccc(-c2ccccc2/C=N/NCCN2CCCC(C(=O)O)C2)c1 (stereo unspecified)" experimental_target="Sodium- and chloride-dependent GABA transporter 1 (Mus musculus) (UniProt P31648)" assay_value="> 10%"
compound="Cc1ccccc1-c1ccccc1/C=N/NCCN1CCCC(C(=O)O)C1 (stereo unspecified)" experimental_target="Sodium- and chloride-dependent GABA transporter 1 (Mus musculus) (UniProt P31648)" assay_value="< 5%"
compound=O=Cc1ccccc1-c1ccc(F)c(F)c1 experimental_target="Sodium- and chloride-dependent GABA transporter 1 (Mus musculus) (UniProt P31648)" assay_value=82%
compound="COc1cccc(F)c1-c1ccccc1/C=N/NCCN1CCCC(C(=O)O)C1 (stereo unspecified)" experimental_target="Sodium- and chloride-dependent GABA transporter 1 (Mus musculus) (UniProt P31648)" assay_value="< 5%"
compound="O=C(O)C1CCCN(CCN/N=C/c2ccccc2-c2ccc(F)c(F)c2)C1 (stereo unspecified)" experimental_target="Sodium- and chloride-dependent GABA transporter 1 (Mus musculus) (UniProt P31648)" assay_value="< 5%"

Entry O=C(O)C1CCCN(CCN/N=C/c2cc(F)ccc2-c2ccc(Cl)cc2)C1 (stereo unspecified) has what Activity?
< 5%

Name the reported Activity value associated with the compound "O=Cc1ccccc1-c1ccccc1-c1ccccc1"
81%

Quick one: Activity for "COc1ccc(-c2ccccc2C=O)cc1" ?
91%

Recorded Activity for O=C(O)C1CCCN(CCN/N=C/c2ccccc2-c2cccc(Cl)c2)C1 (stereo unspecified) , please?
> 10%

Return reported Activity; argument: "Cc1ccc(-c2ccccc2C=O)cc1"
91%

Activity for O=C(O)C1CCCN(CCN/N=C/c2ccccc2-c2cc(F)cc(F)c2)C1 (stereo unspecified) ?
> 10%

Fill in: Activity of O=C(O)C1CCCN(CCN/N=C/c2c(F)cccc2-c2ccccc2)C1 (stereo unspecified) is ___
> 10%

GET /values?readout=Activity&item= Cc1ccc(-c2ccccc2/C=N/NCCN2CCCC(C(=O)O)C2)c(C)c1 (stereo unspecified)
< 5%

Which Activity value is on record for "O=Cc1ccccc1-c1ccccc1F" ?
82%

###

# experimental_target: UniProtKB P31648
# protocol_summary: Binding affinity to mouse GAT1 expressed in HEK293 cells membranes assessed as remaining [2H10]NO711 binding level at 10 uM using LC-ESI-MS/MS analysis by [2H10]NO711 binding inhibition assay
# Format: cell membranes
property_label: Activity

compound="O=C(O)C1CCCN(CCN/N=C/c2ccccc2-c2ccc(F)cc2Cl)C1 (configuration not stated)" experimental_target="UniProtKB P31648" assay_value="< 5%"

Quick check: Activity of "O=Cc1ccccc1-c1cccc(F)c1" ?
82%

Quick one: Activity of Cc1cccc(-c2ccccc2/C=N/NCCN2CCCC(C(=O)O)C2)c1 (configuration not stated) ?
> 10%

Using the record for O=C(O)C1CCCN(CCN/N=C/c2ccccc2-c2cc(F)ccc2F)C1 (configuration not stated) , report its Activity.
> 10%

Which Activity value belongs to "COc1cc(F)ccc1-c1ccccc1C=O" ?
88%

Give its Activity value. Item: O=C(O)C1CCCN(CCN/N=C/c2ccccc2-c2cccc(F)c2F)C1 (configuration not stated)
< 5%

Given the entry COc1ccc(-c2ccccc2/C=N/NCCN2CCCC(C(=O)O)C2)cc1 (configuration not stated) , report its measured Activity.
> 10%
